B1: TRIM29 (parent)
chain: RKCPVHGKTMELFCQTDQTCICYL

Variants of: B1
experimental details: protein stability index of a GFP-peptide fusion (GPS, HEK-293T) (PSI 1-6); higher = more stable;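 also: lentivirally expressed fusions sorted by FACS into six bins by GFP to DsRed ratio, PSI derived from sequencing read proportions per bin multiplied by bin number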
experimental context: c terminus: a fixed tail appended
readout kind: protein stability index

biosequence: RKCFVHGKTMELFCQTDQTCICYL [P4F]
reported measurement: 3.42
--
biosequence: RKCPVHGKTMELFCQTDQTCLCYL [I21L]
reported measurement: 1.73
--
biosequence: RKCPVHGKTMELFCQTDQTCICYE [L24E]
reported measurement: 4.75
--
biosequence: RKCPVHGKTMELFCQTDQTCICYH [L24H]
reported measurement: 4.59
--
biosequence: RKCPVHGKTMELFFQTDQTCICYL [C14F]
reported measurement: 3.17
--
biosequence: RKCPVHGKTMELFCQTDQTCICYR [L24R]
reported measurement: 4.89
--
biosequence: RKCKVHGKTMELFCQTDQTCICYL [P4K]
reported measurement: 2.58
--
biosequence: RWCPVHGKTMELFCQTDQTCICYL [K2W]
reported measurement: 2.91
--
biosequence: RKCPVHGKTMELFCQTDQTCILYL [C22L]
reported measurement: 3.09
--
biosequence: RKCPVHDKTMELFCQTDQTCICYL [G7D]
reported measurement: 3.12
--
biosequence: RKCPVHGKTMELFCQTDQTCIYYL [C22Y]
reported measurement: 1.45
--
biosequence: RKCPVHGKIMELFCQTDQTCICYL [T9I]
reported measurement: 1.49
--
biosequence: RKCPVHGKTMHLFCQTDQTCICYL [E11H]
reported measurement: 2.56
--
biosequence: RKCPVHGKTMELFCQTDQTCICYY [L24Y]
reported measurement: 3.86
--
biosequence: RKCPVLGKTMELFCQTDQTCICYL [H6L]
reported measurement: 2.85
--
biosequence: RPCPVHGKTMELFCQTDQTCICYL [K2P]
reported measurement: 3.02
--
biosequence: RKCPVHGKTTELFCQTDQTCICYL [M10T]
reported measurement: 1.49
--
biosequence: RFCPVHGKTMELFCQTDQTCICYL [K2F]
reported measurement: 2.36
--
biosequence: RKCPVHGKYMELFCQTDQTCICYL [T9Y]
reported measurement: 2.25
--
biosequence: RKCPVHGKTGELFCQTDQTCICYL [M10G]
reported measurement: 1.65
--
biosequence: RKCPVHGKTMELSCQTDQTCICYL [F13S]
reported measurement: 2.5
--
biosequence: RKCPQHGKTMELFCQTDQTCICYL [V5Q]
reported measurement: 1.59
--
biosequence: RKCPVHGKTMELFCQKDQTCICYL [T16K]
reported measurement: 2.15
--
biosequence: RKCPVHGKTMELFCQTDQTCIAYL [C22A]
reported measurement: 1.87
--
biosequence: RKCPVHGKTMELFCQADQTCICYL [T16A]
reported measurement: 2.24
--
biosequence: RKCPVWGKTMELFCQTDQTCICYL [H6W]
reported measurement: 1.96
--
biosequence: RKCPVHGKTMELFCQTDQTCECYL [I21E]
reported measurement: 4.47
--
biosequence: RKKPVHGKTMELFCQTDQTCICYL [C3K]
reported measurement: 1.89
--
biosequence: RKCVVHGKTMELFCQTDQTCICYL [P4V]
reported measurement: 2.21
--
biosequence: RKCPVHGKTMELFCQTDQFCICYL [T19F]
reported measurement: 1.88
--
biosequence: RKCPVHGKTMELFCQTDKTCICYL [Q18K]
reported measurement: 3.94
--
biosequence: GKCPVHGKTMELFCQTDQTCICYL [R1G]
reported measurement: 3.33
--
biosequence: RKVPVHGKTMELFCQTDQTCICYL [C3V]
reported measurement: 1.86
--
biosequence: RKCPVHGKTMELFCQTDQTCICYM [L24M]
reported measurement: 4.34
--
biosequence: RKCPVKGKTMELFCQTDQTCICYL [H6K]
reported measurement: 2.29
--
biosequence: RKCPVHGKTMELFCQTDQTCQCYL [I21Q]
reported measurement: 3.36
--
biosequence: RKCPVHGKTMELFCQTDETCICYL [Q18E]
reported measurement: 2.75
--
biosequence: RKHPVHGKTMELFCQTDQTCICYL [C3H]
reported measurement: 2.27
--
biosequence: RKEPVHGKTMELFCQTDQTCICYL [C3E]
reported measurement: 2.52
--
biosequence: RQCPVHGKTMELFCQTDQTCICYL [K2Q]
reported measurement: 2.12
--
biosequence: RKCPVHGKTMYLFCQTDQTCICYL [E11Y]
reported measurement: 1.8
--
biosequence: RKCPVHGKTMENFCQTDQTCICYL [L12N]
reported measurement: 1.99
--
biosequence: RKCPVHGKTMELFCQTDDTCICYL [Q18D]
reported measurement: 1.79
--
biosequence: RKCPVHGKTMELFCQTDQTGICYL [C20G]
reported measurement: 3.31
--
biosequence: RKWPVHGKTMELFCQTDQTCICYL [C3W]
reported measurement: 2.72
--
biosequence: RKCPVHGKTMELFCQTDQTQICYL [C20Q]
reported measurement: 3.07
--
biosequence: RKCPVHGKTMELFCKTDQTCICYL [Q15K]
reported measurement: 1.79
--
biosequence: RKCPVHGKTMELFCQTDQTKICYL [C20K]
reported measurement: 3.17
--
biosequence: RKCPVHGKEMELFCQTDQTCICYL [T9E]
reported measurement: 2.06
--
biosequence: RKCPVHGKTMRLFCQTDQTCICYL [E11R]
reported measurement: 2.14
--
biosequence: RKCPVHGKTMELFCQTDQTCICVL [Y23V]
reported measurement: 2.66
--
biosequence: RKCPVHGKTMELFCQTDQTCVCYL [I21V]
reported measurement: 1.92
--
biosequence: RKCPVHWKTMELFCQTDQTCICYL [G7W]
reported measurement: 1.4
--
biosequence: RKCDVHGKTMELFCQTDQTCICYL [P4D]
reported measurement: 2.63
--
biosequence: RKCPVHGKTMELFCLTDQTCICYL [Q15L]
reported measurement: 3.21
--
biosequence: RKCPVCGKTMELFCQTDQTCICYL [H6C]
reported measurement: 1.62
--
biosequence: RKCPVHGKTMELFCQTDWTCICYL [Q18W]
reported measurement: 1.56
--
biosequence: RKCPVHGKTMELFCQTDQGCICYL [T19G]
reported measurement: 2.42
--
biosequence: RKCPVHGKTMELFCQTDTTCICYL [Q18T]
reported measurement: 2.36
--
biosequence: RKCPVHGKTMELFCHTDQTCICYL [Q15H]
reported measurement: 2.26
--
biosequence: RKCPVHGKTMGLFCQTDQTCICYL [E11G]
reported measurement: 2.31
--
biosequence: IKCPVHGKTMELFCQTDQTCICYL [R1I]
reported measurement: 1.65
--
biosequence: RKCPVHLKTMELFCQTDQTCICYL [G7L]
reported measurement: 2.26
--
biosequence: RKCPLHGKTMELFCQTDQTCICYL [V5L]
reported measurement: 1.92
--
biosequence: RKCAVHGKTMELFCQTDQTCICYL [P4A]
reported measurement: 2.54
--
biosequence: RKCPVHGKTMELFCQWDQTCICYL [T16W]
reported measurement: 2.17
--
biosequence: RKCPVHSKTMELFCQTDQTCICYL [G7S]
reported measurement: 2.57
--
biosequence: RKCPVHGKCMELFCQTDQTCICYL [T9C]
reported measurement: 1.75
--
biosequence: RKCPVHGKTMELFCQYDQTCICYL [T16Y]
reported measurement: 2.54
--
biosequence: RKCPVHGKTMELFCQTDQTCIFYL [C22F]
reported measurement: 1.31
--
biosequence: RKCPVHGKTMEEFCQTDQTCICYL [L12E]
reported measurement: 1.53
--
biosequence: RKCPVHGKQMELFCQTDQTCICYL [T9Q]
reported measurement: 1.77
--
biosequence: RKCPVHGKLMELFCQTDQTCICYL [T9L]
reported measurement: 2.56
--
biosequence: RKCPVHGKTMELFCQQDQTCICYL [T16Q]
reported measurement: 2.91
--
biosequence: RKCPVHVKTMELFCQTDQTCICYL [G7V]
reported measurement: 2.04
--
biosequence: RKCPCHGKTMELFCQTDQTCICYL [V5C]
reported measurement: 3.08
--
biosequence: RKCPVHGKTMELFVQTDQTCICYL [C14V]
reported measurement: 1.47
--
biosequence: RNCPVHGKTMELFCQTDQTCICYL [K2N]
reported measurement: 2.68
--
biosequence: RKCPVHGKTMELFGQTDQTCICYL [C14G]
reported measurement: 1.86
--
biosequence: RKCPVHGKTMELFCQTDQTSICYL [C20S]
reported measurement: 2.56
--
biosequence: RKCPVHGKTMELFCQTDQTCKCYL [I21K]
reported measurement: 2.02
--
biosequence: RKCPVHGKTMELFCQTDRTCICYL [Q18R]
reported measurement: 1.97
--
biosequence: RKCPVHFKTMELFCQTDQTCICYL [G7F]
reported measurement: 2.55
--
biosequence: RKCPVHGKTMELFCQTDQTCICYV [L24V]
reported measurement: 4.34
--
biosequence: RKCPVHGKTMELFCQTSQTCICYL [D17S]
reported measurement: 1.49
--
biosequence: RKCEVHGKTMELFCQTDQTCICYL [P4E]
reported measurement: 3.3
--
biosequence: RKCPVHGKTMELFCQTDQTCIKYL [C22K]
reported measurement: 2.04
--
biosequence: RKCPVHGKTCELFCQTDQTCICYL [M10C]
reported measurement: 1.94
--
biosequence: RKCPVHGWTMELFCQTDQTCICYL [K8W]
reported measurement: 2.77
--
biosequence: RKCPVHGKTMELFCQTDQTCFCYL [I21F]
reported measurement: 2.86
--
biosequence: RKCPVHGKTMELFCQTEQTCICYL [D17E]
reported measurement: 3.12
